System: HCT-116 colon
TEST_DETAILS: NCI tumour cell line growth inhibition, 48 h; in the data active = GI50 below about 0.43 µM; inactive = the rest
// classify into active, inactive

Q: Lab log entry: Nc1ncnc2c1N=C(c1ccc3c(c1)OCO3)CC(c1ccc([N+](=O)[O-])cc1)N2 (stereo not given) — outcome as called in the assay?
Result: inactive

Q: Lab log entry: O=C1OCC2=C1C(c1cccc(Cl)c1)c1cc3c(cc1N2CCO)OCCO3 (stereo not given) — outcome as called in the assay?
Result: active

Q: Lab log entry: CC[C@@]1(O)C(=O)OCc2c1cc1n(c2=O)Cc2cc3cc4c(cc3nc2-1)OCO4 — outcome as called in the assay?
Result: active

Q: Lab log entry: N#C/C(=C\c1ccsc1)c1nc2ccccc2o1 — outcome as called in the assay?
Result: inactive

Q: Lab log entry: Cc1c(C(=O)Nc2ccccc2)sc2ncn(Cc3cccc(Cl)c3)c(=O)c12 — outcome as called in the assay?
Result: inactive

Q: Lab log entry: Cc1ccc(S(=O)(=O)c2c(COC(=O)c3cccc(C)c3)c(-c3ccccc3)nn2C)cc1 — outcome as called in the assay?
Result: inactive

Q: Lab log entry: CC(=O)[CH-]C(=O)c1ccccc1.CC(=O)[CH-]C(=O)c1ccccc1.CC[O-].CC[O-].[Hf+4] — outcome as called in the assay?
Result: inactive

Q: Lab log entry: Cn1ncnc1[C@H]1c2n[nH]c(=O)c3cc(F)cc(c23)N[C@@H]1c1ccc(F)cc1 — outcome as called in the assay?
Result: inactive

Q: Lab log entry: CC1(C)C2CCC13C(=O)C1OC3(C2)C2C(=O)c3ccccc3C(=O)C12 (stereo not given) — outcome as called in the assay?
Result: inactive
